Biological target: full-length SARM1 (FL-SARM1) (Homo sapiens, UniProt Q6SZW1)
Sequence (Q6SZW1 28-724): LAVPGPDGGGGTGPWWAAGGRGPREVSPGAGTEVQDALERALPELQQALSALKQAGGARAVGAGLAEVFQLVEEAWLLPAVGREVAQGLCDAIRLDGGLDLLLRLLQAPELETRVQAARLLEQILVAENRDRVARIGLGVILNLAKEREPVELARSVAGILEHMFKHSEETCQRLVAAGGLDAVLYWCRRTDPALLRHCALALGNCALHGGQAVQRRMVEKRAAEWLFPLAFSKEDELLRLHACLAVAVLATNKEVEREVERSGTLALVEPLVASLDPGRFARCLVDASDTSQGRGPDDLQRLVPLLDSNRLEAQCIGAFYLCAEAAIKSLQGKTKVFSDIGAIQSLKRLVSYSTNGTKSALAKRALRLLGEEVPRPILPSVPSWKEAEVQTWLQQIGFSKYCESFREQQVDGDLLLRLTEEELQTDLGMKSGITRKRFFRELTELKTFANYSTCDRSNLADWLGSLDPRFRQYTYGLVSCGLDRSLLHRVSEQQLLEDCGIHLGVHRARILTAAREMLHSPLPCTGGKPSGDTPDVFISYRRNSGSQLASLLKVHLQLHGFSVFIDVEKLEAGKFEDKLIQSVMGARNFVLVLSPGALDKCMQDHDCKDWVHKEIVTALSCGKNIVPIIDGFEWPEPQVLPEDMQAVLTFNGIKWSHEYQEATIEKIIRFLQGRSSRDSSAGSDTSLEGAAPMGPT
Test: FL-SARM1 cellular lysate assay (NAD/NADH-Glo detection of remaining NAD+, NMN-activated)
Details: Activity (IC50 class), 11 point curve
I'd be grateful if you could share measured IC50 for these entries.

Recorded IC50 of `Cc1nnc(CN2[C@@H](C(=O)Nc3ccc(C)c(-c4ncc(F)cn4)c3)C[C@H]3C[C@H]32)o1` , please.
> 10 µM

Another compound to check: `CO[C@H]1CCCN(C(=O)Nc2ccc(C(F)(F)F)c(-c3ncc(F)cn3)c2)CC1`
> 10 µM

Another compound to check: Cc1ccc(NC(=O)[C@@H]2CO[C@H](C(F)(F)F)CN2c2ccccn2)cc1-c1ncc(F)cn1 (racemic)
1 to 10 µM

Another compound to check: `Cc1ccc(NC(=O)[C@H]2C[C@@H](C(F)(F)F)CN2c2ncn(C)n2)cc1-c1ncc(F)cn1`
1 to 10 µM

Another compound to check: `Cc1ccc(NC(=O)N2C3CC2CN(c2ncccn2)C3)cc1-c1ccccn1`
1 to 10 µM

Another compound to check: Cc1ccc(NC(=O)[C@H]2CC[C@@H](C3CC3)N2c2ccccn2)cc1-c1ncc(F)cn1 (racemic)
1 to 10 µM

Another compound to check: `Cc1c(-c2ncc(F)cn2)cc(NC(=O)N2C3CCCC2C3)c(F)c1F`
1 to 10 µM

Another compound to check: Cc1ccc(NC(=O)C2CC(C(F)(F)F)C2)cc1-c1ccccn1 (mixture of isomers)
1 to 10 µM
